Hello, the source for this data is paper PMC8879095, in case you need it.

procedure_text: Antibiotic concentrations in porcine oral fluid after intramuscular application (UHPLC-MS/MS)
Type: in vivo
particulars: male, (Landrace × Yorkshire) × Duroc crossbred (DanBred sows), pig, intramuscular; oral fluid, pigs, i.m., time 25 d, posttreatment; read-out: Avarage Concentrations in oral fluid
Property: concentration at 25 d; scope: individual compounds
Answer with a number only, understood to be in ng/mL.

smi=CCC[C@@H]1C[C@@H](C(=O)N[C@@H]([C@H]2O[C@H](SC)[C@H](O)[C@@H](O)[C@H]2O)[C@@H](C)O)N(C)C1 number=180

Measured concentration at 25 d of `CC[C@H]1OC(=O)C[C@@H](O)[C@H](C)[C@@H](O[C@@H]2O[C@H](C)[C@@H](O[C@H]3C[C@@](C)(O)[C@@H](O)[C@H](C)O3)[C@H](N(C)C)[C@H]2O)[C@@H](CC=O)C[C@@H](C)C(=O)/C=C/C(C)=C/[C@@H]1CO[C@@H]1O[C@H](C)[C@@H](O)[C@@H](OC)[C@H]1OC` : 5
